Data provenance: paper PMC12415213

Consider the following compounds and their measured Screen Inhibition (%) readings.
Tested on: S. mansoni vcp/p97 (Smp_018240)
Test: High-throughput screen of S. mansoni p97 (Kinase-Glo, single concentration)
Type: biochemical, Schistosoma mansoni
Settings: 10 μM compound, normalized to CB-5083 control

- test smiles: "O=C(C#Cc1ccccc1)Nc1ccc2oc(-c3cccnc3)nc2c1"
  Screen Inhibition (%): "16%"
- test smiles: "O=C(C#Cc1ccccc1)Nc1ccc2oc(-c3ccncc3)nc2c1"
  Screen Inhibition (%): "47%"
- test smiles: "O=C(C#Cc1ccccc1)Nc1ccc2oc(-c3ccccc3)nc2c1"
  Screen Inhibition (%): "36%"
- test smiles: "O=C(/C=C\\c1ccccc1)Nc1ccc2oc(-c3ccccc3)nc2c1"
  Screen Inhibition (%): "1.1%"
- test smiles: "O=C(C#Cc1ccccc1)Nc1ccc2oc(-c3ccccn3)nc2c1"
  Screen Inhibition (%): "46%"
- test smiles: "O=C(CCc1ccccc1)Nc1ccc2oc(-c3ccccn3)nc2c1"
  Screen Inhibition (%): "2.2%"
- test smiles: "O=C(C=Cc1ccccc1)Nc1ccc2oc(-c3ccccc3)nc2c1"
  Screen Inhibition (%): "1.1%"
